Numbers sourced from patent US8394969B2.

This listing pairs compounds with measured pEC50.
Biological target: recombinant human AMPK complex 1 (containing α1β1γ1) (Homo sapiens, UniProt Q13131+Q9Y478)
Sequence (Q13131 whole entry): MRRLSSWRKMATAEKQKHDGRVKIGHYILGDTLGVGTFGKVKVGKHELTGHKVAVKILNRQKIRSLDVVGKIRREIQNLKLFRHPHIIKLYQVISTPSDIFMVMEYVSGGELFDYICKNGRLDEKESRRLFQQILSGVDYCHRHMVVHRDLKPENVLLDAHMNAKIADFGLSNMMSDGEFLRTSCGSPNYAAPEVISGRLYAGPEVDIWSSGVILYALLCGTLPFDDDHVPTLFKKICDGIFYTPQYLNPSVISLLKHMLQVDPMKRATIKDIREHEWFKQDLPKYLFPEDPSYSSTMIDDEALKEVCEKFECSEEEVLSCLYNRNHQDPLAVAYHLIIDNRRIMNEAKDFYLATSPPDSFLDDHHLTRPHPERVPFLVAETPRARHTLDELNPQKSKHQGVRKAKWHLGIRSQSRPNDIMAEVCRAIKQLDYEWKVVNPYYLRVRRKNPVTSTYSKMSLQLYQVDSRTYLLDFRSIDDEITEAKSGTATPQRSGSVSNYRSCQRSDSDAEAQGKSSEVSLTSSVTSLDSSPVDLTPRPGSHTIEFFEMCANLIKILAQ
Sequence (Q9Y478 whole entry): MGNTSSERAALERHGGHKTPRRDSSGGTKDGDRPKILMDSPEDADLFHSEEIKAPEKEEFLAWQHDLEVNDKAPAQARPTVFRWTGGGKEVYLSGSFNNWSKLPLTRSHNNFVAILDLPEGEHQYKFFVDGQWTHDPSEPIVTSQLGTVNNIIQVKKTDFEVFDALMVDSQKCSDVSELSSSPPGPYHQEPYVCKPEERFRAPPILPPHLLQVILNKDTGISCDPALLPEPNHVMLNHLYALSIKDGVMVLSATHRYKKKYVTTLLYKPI
Sequence (P54619 whole entry partner): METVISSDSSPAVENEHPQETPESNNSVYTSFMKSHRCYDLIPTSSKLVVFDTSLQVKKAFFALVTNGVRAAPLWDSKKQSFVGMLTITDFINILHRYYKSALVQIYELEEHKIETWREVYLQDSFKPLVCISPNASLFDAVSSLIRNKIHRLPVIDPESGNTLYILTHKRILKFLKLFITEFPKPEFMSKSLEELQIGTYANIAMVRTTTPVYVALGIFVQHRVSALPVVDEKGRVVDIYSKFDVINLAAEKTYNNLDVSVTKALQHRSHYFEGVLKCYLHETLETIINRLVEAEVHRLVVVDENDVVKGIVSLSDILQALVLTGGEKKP
Test: […] (in vitro AMPK activation assay)
Type: biochemical
Details: recombinant human AMPK complex 1 (α1β1γ1); read-out: EC50
Please treat pEC50 as minus the base-10 logarithm of the molar concentration.

Example entries begin here.
1) Cc1ccc(Oc2nc3cc(-c4ccc(-c5ccccc5O)cc4)c(F)cc3[nH]2)cc1C(=O)O = 9.00
2) Cc1ccc(Oc2nc3cc(-c4ccc5c(ccn5C)c4)c(Cl)cc3[nH]2)cc1C(=O)O = 8.52
3) Cc1ccc(Oc2nc3cc(C#Cc4ccccc4F)c(Cl)cc3[nH]2)cc1C(=O)O = 8.52

Entry Cc1ccc(Oc2nc3cc(-c4cc5ccn(CCO)c5cc4F)c(Cl)cc3[nH]2)cc1C(=O)O — recorded pEC50 = 8.30

Reported pEC50 ( Cc1ccc(Oc2nc3cc(-c4ccc(C(=O)N5CCC(O)CC5)cc4)c(Cl)cc3[nH]2)cc1C(=O)O ) = 8.00

Looking up Cc1ccc(Oc2nc3cc(-c4ccc(C(C)(C)O)cc4)c(Cl)cc3[nH]2)cc1C(=O)O , I see its pEC50 listed as 7.80

Per the records, this compound ( Cc1ccc(Oc2nc3cc(-c4ccc(-c5ccncc5)cc4)c(Cl)cc3[nH]2)cc1C(=O)O ) has pEC50 equal to 8.30

pEC50 reading for COc1ccc(-c2cc3nc(Oc4ccc(C)c(C(=O)O)c4)[nH]c3cc2Cl)c(F)c1 : 8.00

Looking up Cc1ccc(Oc2nc3cc(-c4ccc(C5CC5)cc4)c(Cl)cc3[nH]2)cc1C(=O)O , I found its pEC50 recorded as 8.05

Cc1ccc(Oc2nc3cc(-c4ccc(C5(CO)CC5)cc4)c(Cl)cc3[nH]2)cc1C(=O)O yielded pEC50 of 8.52

The compound listed as Cc1ccc(Oc2nc3cc(-c4ccc(-c5ccc(=O)n(C)c5)cc4)c(Cl)cc3[nH]2)cc1C(=O)O shows pEC50 equal to 8.15

GET /value?item= Cc1ccc(Oc2nc3cc(-c4ccc5c(c4)OCCN5C)c(Cl)cc3[nH]2)cc1C(=O)O &field=pEC50 returns 7.66

Measured pEC50 of Cc1ccc(Oc2nc3c(F)c(-c4ccc5c(ccn5C)c4)c(F)cc3[nH]2)cc1C(=O)O : 8.70

# compound Cc1ccc(Oc2nc3cc(-c4ccc(N5CCCC5)cc4)c(Cl)cc3[nH]2)cc1C(=O)O ; its pEC50 = 8.15

Input Cc1ccc(Oc2nc3cc(-c4ccc(-c5ccccc5)cc4)c(F)cc3[nH]2)cc1C(=O)O . Output pEC50: 8.05

The reported value for Cc1ccc(Oc2nc3cc(-c4ccc(-c5ccc(C(=O)O)cc5)cc4)c(F)cc3[nH]2)cc1C(=O)O in terms of pEC50 is 8.10
